tested on: T cell lines against a natural (non-mutated) epitope (SSX-241-49); test: Cross-reactivity and functional avidity: IFN-gamma from T cell lines against natural SSX-2 41-49 epitope; format: cell-based, HHD transgenic mice; settings: IFN-gamma from T cell line raised against native SSX-2 41-49; native = 1, lower = more active;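 further: peptide analogs tested ex vivo with competent APCs, IFN-gamma in supernatant measured by ELISA, readouts include minimal triggering concentration, peak effect and concentration at peak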
Square brackets hold non-standard residues; d marks the D form. Peptide text beside a SMILES is read from it. Bta = N[C@@H](Cc1csc2ccccc12)C(=O)O; Phg = N[C@H](C(=O)O)c1ccccc1; Nva = CCC[C@H](N)C(=O)O
Where Cross-reactivity and fct avidity (native to analogs)* equals or exceeds 3, the correct label is t; where it does not, the label is f.

molecule	system.under.test	discrete.label
CC[C@H](C)[C@H](NC(=O)[C@H](CCCCN)NC(=O)[C@H](CCC(=O)O)NC(=O)[C@H](CO)NC(=O)[C@@H](NC(=O)[C@H](N)CCCCN)C(C)C)C(=O)N[C@@H](Cc1ccccc1)C(=O)N[C@@H](Cc1ccc(O)cc1)C(=O)N[C@H](C(=O)O)C(C)C [SSX2 41-49 (K41(D-Lys), A42V)]	T cell lines against a natural (non-mutated) epitope (SSX-241-49)	t
CC[C@H](C)[C@H](NC(=O)[C@H](CCCCN)NC(=O)[C@H](CCC(=O)O)NC(=O)[C@H](CO)NC(=O)[C@H](C)NC(=O)[C@@H](N)Cc1csc2ccccc12)C(=O)N[C@@H](Cc1ccccc1)C(=O)N[C@@H](Cc1ccc(O)cc1)C(=O)N[C@H](C(=O)O)C(C)C [SSX2 41-49 (K41(b-(3-benzothienyl)Ala))] (H-[Bta]ASEKIFYV-OH)	T cell lines against a natural (non-mutated) epitope (SSX-241-49)	t
CCCC[C@H](NC(=O)[C@H](Cc1ccc(O)cc1)NC(=O)[C@H](Cc1ccccc1)NC(=O)[C@@H](NC(=O)[C@H](CCCCN)NC(=O)[C@H](CCC(=O)O)NC(=O)[C@H](CO)NC(=O)[C@@H](NC(=O)[C@@H](N)Cc1ccccc1)C(C)C)[C@@H](C)CC)C(=O)O [SSX2 41-49 (K41F, A42V, V49Nle)]	T cell lines against a natural (non-mutated) epitope (SSX-241-49)	t
CC[C@H](C)[C@H](NC(=O)[C@H](CCCCN)NC(=O)[C@H](CCC(=O)O)NC(=O)[C@H](CO)NC(=O)[C@@H](NC(=O)[C@@H](N)Cc1ccc(O)cc1)[C@@H](C)CC)C(=O)N[C@@H](Cc1ccccc1)C(=O)N[C@@H](Cc1ccc(O)cc1)C(=O)N[C@H](C(=O)O)C(C)C [SSX2 41-49 (K41Y, A42I)]	T cell lines against a natural (non-mutated) epitope (SSX-241-49)	f
CC[C@H](C)[C@H](NC(=O)[C@H](CCCCN)NC(=O)[C@H](CCC(=O)O)NC(=O)[C@H](CO)NC(=O)[C@H](CC(C)C)NC(=O)[C@@H](N)CCCCN)C(=O)N[C@@H](Cc1ccccc1)C(=O)N[C@@H](Cc1ccc(O)cc1)C(=O)N[C@H](C(=O)O)C(C)C [SSX2 41-49 (A42L)]	T cell lines against a natural (non-mutated) epitope (SSX-241-49)	f
CC[C@H](C)[C@H](NC(=O)[C@H](CCCCN)NC(=O)[C@@H](NC(=O)[C@H](CO)NC(=O)[C@@H](NC(=O)[C@@H](N)Cc1ccccc1)C(C)C)[C@@H](C)O)C(=O)N[C@@H](Cc1ccccc1)C(=O)N[C@@H](Cc1ccc(O)cc1)C(=O)N[C@H](C(=O)O)C(C)C [SSX2 41-49 (K41F, A42V, E44T)]	T cell lines against a natural (non-mutated) epitope (SSX-241-49)	t
CC[C@H](C)[C@H](NC(=O)[C@H](CCCCN)NC(=O)[C@H](CCC(=O)O)NC(=O)[C@H](CO)NC(=O)[C@H](C)NC(=O)[C@@H](N)c1ccccc1)C(=O)N[C@@H](Cc1ccccc1)C(=O)N[C@@H](Cc1ccc(O)cc1)C(=O)N[C@H](C(=O)O)C(C)C [SSX2 41-49 (K41(Phg))] (H-[Phg]ASEKIFYV-OH)	T cell lines against a natural (non-mutated) epitope (SSX-241-49)	f
CCC[C@H](NC(=O)[C@H](CCCCN)NC(=O)[C@H](CCC(=O)O)NC(=O)[C@H](CO)NC(=O)[C@@H](NC(=O)[C@@H](N)Cc1ccccc1)C(C)C)C(=O)N[C@@H](Cc1ccccc1)C(=O)N[C@@H](Cc1ccc(O)cc1)C(=O)N[C@H](C(=O)O)C(C)C [SSX2 41-49 (K41F, A42V, I46Nva), FVSEK(Nva)FYV] (H-FVSEK[Nva]FYV-OH)	T cell lines against a natural (non-mutated) epitope (SSX-241-49)	f
CC[C@H](C)[C@H](NC(=O)[C@H](CCCCN)NC(=O)[C@H](CCC(=O)O)NC(=O)[C@H](CO)NC(=O)[C@@H](NC(=O)[C@@H](N)Cc1ccccc1)C(C)C)C(=O)N[C@@H](Cc1ccccc1)C(=O)N[C@@H](Cc1ccc(O)cc1)C(=O)N(C)[C@H](C(=O)O)C(C)C [SSX2 41-49 (K41F, A42V, V49MeVal)]	T cell lines against a natural (non-mutated) epitope (SSX-241-49)	t

The origin of these recorded values is patent US7605227B2.
